Molecular target: D2 receptor (Rattus norvegicus, UniProt P61169)
Construct: Freezed corpus striatum dissected out from rats were homogenized; from tissue; host or cells: rat corpus striatum, crude synaptosome membranes
Sequence (P61169 whole entry): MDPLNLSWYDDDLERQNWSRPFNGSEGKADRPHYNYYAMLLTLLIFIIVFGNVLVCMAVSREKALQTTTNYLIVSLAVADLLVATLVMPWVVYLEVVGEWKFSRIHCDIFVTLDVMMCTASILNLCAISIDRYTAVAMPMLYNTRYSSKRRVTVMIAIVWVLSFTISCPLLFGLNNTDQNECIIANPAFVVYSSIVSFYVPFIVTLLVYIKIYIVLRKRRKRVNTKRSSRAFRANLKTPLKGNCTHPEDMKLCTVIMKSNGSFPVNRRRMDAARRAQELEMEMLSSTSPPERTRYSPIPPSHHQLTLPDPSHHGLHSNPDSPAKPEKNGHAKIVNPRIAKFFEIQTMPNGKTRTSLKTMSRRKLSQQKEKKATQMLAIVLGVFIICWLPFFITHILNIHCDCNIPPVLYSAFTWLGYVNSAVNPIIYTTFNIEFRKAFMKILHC
Assay: Affinity for Dopamine 2 (D2) receptor, 3H-Spiperone binding test (rat corpus striatum)
Conditions: 3H-Spiperone 0.2 nM, rat corpus striatum, 37° C., 20 minutes; read-out: Binding Profile IC50 D2
Protocol: Experiment 3: Affinity for Dopamine 2 (D2) Receptor (^3 H-Spiperone Binding Test). Preparation of crude synaptosome fraction and binding assays were conducted in accordance with the method reported in European Journal of Pharmacology, vol. […] The filters were washed three times with 5 ml of the above buffer, and then the radioactivity of the residue remaining on the filters was measured by liquid scintillation counter. […]
pIC50: −log10 of the molar value.
Quick reference for pIC50 among some molecules
assayMetric: pIC50

>>> df
                                  cpdsmiles  assaymetric  valuerelationsign  resultnumber
0  CC(=O)N1C[C@@H]2C[C@@H]3C(=Cc4cccc1c42)[C@@H](C)CN3C        pIC50                  =          5.22
1  C[C@H]1CN(C)[C@@H]2C[C@@H]3CN(C(N)=O)c4cccc(c43)C=C21        pIC50                  =          5.35
2  C[C@H]1CN(C)[C@@H]2Cc3c[nH]c4cccc(c34)C=C21        pIC50                  =          6.03
3  C[C@H]1CN(C)[C@@H]2C[C@@H]3CNc4cccc(c43)C=C21        pIC50                  <          5.00
4  CC(=O)N1C[C@H]2C[C@@H]3C(=Cc4cccc1c42)[C@@H](C)CN3C        pIC50                  =          5.30
5  C[C@H]1CN(C)[C@@H]2C[C@@H]3CNc4ccc([N+](=O)[O-])c(c43)C=C21        pIC50                  =          5.31
6  C[C@H]1CN(C)[C@@H]2Cc3c(Br)[nH]c4cccc(c34)C=C21        pIC50                  =          6.21

----------
biological target: 5-HT1A receptor (Rattus norvegicus, UniProt P19327); construct: Freezed hippocampus dissected out from rats were homogenized; from tissue; host or cells: rat hippocampus, crude synaptosome membranes; test: Affinity for Serotonin 1A receptor, 3H-8-OH-DPAT binding test (rat hippocampus synaptosome membranes); settings: tritiated 8-OH-DPAT 0.2 nM, rat hippocampus, 37° C., 10 minutes; read-out: Binding Profile IC50 5-HT1A
Sequence (P19327 whole entry): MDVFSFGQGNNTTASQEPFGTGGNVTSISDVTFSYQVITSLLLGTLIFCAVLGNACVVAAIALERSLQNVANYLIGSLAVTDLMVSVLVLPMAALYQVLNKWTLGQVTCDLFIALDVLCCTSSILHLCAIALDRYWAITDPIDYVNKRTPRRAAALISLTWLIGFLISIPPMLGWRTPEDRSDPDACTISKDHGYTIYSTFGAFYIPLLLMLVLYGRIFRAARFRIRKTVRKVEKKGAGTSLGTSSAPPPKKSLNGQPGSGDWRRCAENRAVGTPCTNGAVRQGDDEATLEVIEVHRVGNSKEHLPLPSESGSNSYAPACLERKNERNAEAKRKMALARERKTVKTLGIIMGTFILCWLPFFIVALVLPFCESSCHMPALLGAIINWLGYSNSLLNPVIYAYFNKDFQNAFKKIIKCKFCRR
assayMetric: IC50 (nM)

>>> print(df.to_string())
                                   molecule  assaymetric  resultnumber
0  CC(=O)N1C[C@@H]2C[C@@H]3C(=Cc4cccc1c42)[C@@H](C)CN3C [Example 35]         IC50           530
1  C[C@H]1CN(C)[C@@H]2C[C@@H]3CN(C(N)=O)c4cccc(c43)C=C21 [Example 36]         IC50           100
2  C[C@H]1CN(C)[C@@H]2C[C@@H]3CNc4ccc([N+](=O)[O-])c(c43)C=C21 [Example 40]         IC50             3
3  C[C@H]1CN(C)[C@@H]2Cc3c(Br)[nH]c4cccc(c34)C=C21 [Example 4]         IC50           330
4  CC(=O)N1C[C@H]2C[C@@H]3C(=Cc4cccc1c42)[C@@H](C)CN3C [Example 34]         IC50           100
